B1: LINE1-full (parent)
chain: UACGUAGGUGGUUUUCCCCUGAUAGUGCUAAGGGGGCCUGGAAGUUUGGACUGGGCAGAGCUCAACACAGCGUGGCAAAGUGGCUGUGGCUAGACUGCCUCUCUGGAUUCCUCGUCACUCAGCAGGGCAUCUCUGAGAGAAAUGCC

variants of: B1; experiment: self-cleavage, relative activity (ratio to wild type); higher = more cleavage; in vitro, sequencing; the parent is a self-cleaving ribozyme
Tag: rule met if measured self-cleavage is not below 0.4, rule not met if it is.

stdin: Test whether the variant U115A A141G records self-cleavage of 0.4 or higher.
stdout: rule met

stdin: Test whether the variant A67G A136C records self-cleavage of 0.4 or higher.
stdout: rule not met

stdin: Test whether the variant G114A A138G records self-cleavage of 0.4 or higher.
stdout: rule met

stdin: Test whether the variant C63U C123U records self-cleavage of 0.4 or higher.
stdout: rule not met

stdin: Test whether the variant G4A A121G records self-cleavage of 0.4 or higher.
stdout: rule met

stdin: Test whether the variant G49A U102C records self-cleavage of 0.4 or higher.
stdout: rule met

stdin: Test whether the variant C37A G88U records self-cleavage of 0.4 or higher.
stdout: rule not met

stdin: Test whether the variant G86A U112C records self-cleavage of 0.4 or higher.
stdout: rule not met

stdin: Test whether the variant G7C A92G records self-cleavage of 0.4 or higher.
stdout: rule not met

stdin: Test whether the variant U1A A78G records self-cleavage of 0.4 or higher.
stdout: rule met

stdin: Test whether the variant U73A G80A records self-cleavage of 0.4 or higher.
stdout: rule met

stdin: Test whether the variant U13A A42G records self-cleavage of 0.4 or higher.
stdout: rule met

stdin: Test whether the variant A43C U81A records self-cleavage of 0.4 or higher.
stdout: rule met

stdin: Test whether the variant C113U C131G records self-cleavage of 0.4 or higher.
stdout: rule met

stdin: Test whether the variant G75C A138G records self-cleavage of 0.4 or higher.
stdout: rule met

stdin: Test whether the variant A50C C116U records self-cleavage of 0.4 or higher.
stdout: rule met

stdin: Test whether the variant G4C U100C records self-cleavage of 0.4 or higher.
stdout: rule met

stdin: Test whether the variant G53A A129G records self-cleavage of 0.4 or higher.
stdout: rule met

stdin: Test whether the variant G40A A59U records self-cleavage of 0.4 or higher.
stdout: rule met

stdin: Test whether the variant G53C records self-cleavage of 0.4 or higher.
stdout: rule met

stdin: Test whether the variant U47C G88A records self-cleavage of 0.4 or higher.
stdout: rule not met

stdin: Test whether the variant U13A A92G records self-cleavage of 0.4 or higher.
stdout: rule not met
